Please go through the items and note down their growth inhibition.
PROCEDURE_TEXT: NCI Yeast Anticancer Drug Screen. Data for the sgs1 mgt1 strain (AID 161);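 also: 0% = growth of cultures given vehicle only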
TEST_CONTEXT: S. cerevisiae sgs1 mgt1 strain, at 50.0 µM, hits give high values
About 79,000 compounds went through this panel and 15% of them were active in at least one assay; those are over-represented in the sample as a whole.
Give bare numbers, in %.

Example molecules with recorded growth inhibition:
INSERT INTO measurements (molecule, endpoint_label, units_of_measure, numeric_readout) VALUES
  ('Cc1ccc(S(=O)(=O)CCCl)cc1', 'growth inhibition', '%', -21.9),
  ('O=C(Nc1c(Cl)cc(Cl)cc1Cl)ON=C1CCCCC1', 'growth inhibition', '%', 11.1),
  ('CCN(C(C)=O)c1ccc([N+](=O)[O-])cc1', 'growth inhibition', '%', 2);

List reported growth inhibition for each of these molecules:
1. Cc1cccc(-[n+]2noc(N)n2)c1
2. CC(=O)NNC(=S)/N=C\C(C(=O)c1ccccc1)=C(/O)c1ccccc1
3. C=C1C(=O)C2CCC1C2 (stereo not drawn)
4. O=C1Nc2ccccc2/C1=C\c1ccccc1O
5. O=C(c1ccc(Cl)cc1)N1CCCCC1
6. COC1OC(CO)C(OC)C(O)C1O (stereo not drawn)
7. C[C@H](CCC[C@H](C)OS(=O)(=O)c1ccccc1)OS(=O)(=O)c1ccccc1
8. CC(C)C(=O)OCCOc1ccc(C(C)(C)C)cc1

1: 2.25; 2: -14.4; 3: 23.8; 4: 12.2; 5: -17.6; 6: 0.2; 7: 5.85; 8: 6.9

Return reported growth inhibition values for all items listed beneath this line.
1. CCCCOC(=O)c1ccc(NC(=O)CCl)cc1
2. CC(=O)C1C(=O)C(=O)N(c2ccc(Cl)c(Cl)c2)C1=O (stereo not drawn)

1. 43.1
2. -2.35

---

PROCEDURE_TEXT: NCI Yeast Anticancer Drug Screen. Data for the mlh1 rad18 strain (AID 175)
TEST_CONTEXT: S. cerevisiae mlh1 rad18 strain growth inhibition; at 50.0 µM; hits give high values
The panel holds about 79,000 compounds, 15% with a hit somewhere; the sample as a whole holds those more often.
ENDPOINT_LABEL: growth inhibition (%)
Numbers only, in %.

Please review the entries below; each comes with its answer.
INSERT INTO results (compound, endpoint_label, numeric_readout) VALUES
  ('CC(C)c1ccc(C(=O)OCCCl)cc1', 'growth inhibition', 23.8),
  ('CCC(C)c1c(N)n(S(=O)(=O)c2ccc(C)cc2)oc1=O (centres undefined)', 'growth inhibition', -3.45),
  ('CC(C)OCC(CCl)OC(=O)Nc1ccccc1 (centres undefined)', 'growth inhibition', 31.7),
  ('Cc1ccc[n+](CCC(N)=O)c1', 'growth inhibition', -6.75),
  ('O=C(NC(=S)N1CC=CCC1)c1ccccc1', 'growth inhibition', 21.3),
  ('Cc1cc(=O)n(Nc2ccccc2)c(O)c1C#N', 'growth inhibition', 3.15);

Would you be so kind as to report growth inhibition for each listed record?
1. Cc1cc(CC(=O)NCCO)n(CCO)c(=O)c1
2. CCOC(=O)/C(C#N)=C\c1c[nH]c2ccccc12
3. Cc1ccc(/C=N/NC(N)=S)s1
4. C=C(c1ccc(N(C)C)cc1)c1ccc(N(C)C)cc1
5. COC1(OC)C2(Cl)C(Cl)=C(Cl)C1(Cl)C1COCC12 (centres undefined)
6. c1ccc2[nH]c(Cc3nc4ccccc4[nH]3)nc2c1
7. Cc1ccc(C)c2c1CCC2=O

-2.9
59.2
48.5
-5.3
-8.6
10.2
13.3

Consider the compound "OCCNc1ccccc1" . State its measured growth inhibition.
9.7

---

PROCEDURE_TEXT: NCI Yeast Anticancer Drug Screen. Data for the cln2 rad14 strain (AID 165);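 also: 0% = growth equal to vehicle treated cultures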
TEST_CONTEXT: S. cerevisiae cln2 rad14 strain, at 50.0 µM, hits give high values
The panel holds about 79,000 compounds, 15% with a hit somewhere; the sample as a whole holds those more often.
ENDPOINT_LABEL: growth inhibition (%)
Answers are plain numbers, in %.

INSERT INTO results (compound, endpoint_label, numeric_readout) VALUES
  ('OCc1cccnc1', 'growth inhibition', 9.55);

Hi, could you look up growth inhibition for each item in my list?
1. Cn1c(=O)c2[nH]c(CC(=O)O)nc2n(C)c1=O
2. CCC1CCC(C)NC1 (centres undefined)
3. CC1(C)CC(=O)C=C(N)C1
4. O=C(O)c1ccc([N+](=O)[O-])cc1S(=O)(=O)O
5. COC(=O)Cc1cc(COC(C)=O)ccc1C
6. CC(C)=CCC[C@@H](C)[C@H]1CC[C@@]2(C)C3=C(CC[C@]12C)[C@@]1(C)CC[C@H](O)C(C)(C)[C@@H]1CC3
7. CCCCN(C=S)CCCC
8. CCCC(=O)c1cccs1

22.8
23.6
14.2
-22.9
-57
9.85
13.7
-11.3

---

Please provide measured growth inhibition for the entries that follow.
PROCEDURE_TEXT: NCI Yeast Anticancer Drug Screen. Data for the cln2 rad14 strain (AID 165);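 also: 0% = growth equal to vehicle treated cultures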
TEST_CONTEXT: S. cerevisiae cln2 rad14 strain, at 50.0 µM, hits give high values
The panel holds about 79,000 compounds, 15% with a hit somewhere; the sample as a whole holds those more often.
Numbers only, in %.

A selection of reference data follows.
INSERT INTO assay_data (molecule, numeric_readout) VALUES
  ('C(=C\c1ccncc1)/c1ccncc1', -0.55),
  ('CC1(C)C2CCC1(C)C1(C2)OCCS1 (stereo not drawn)', 11.2),
  ('Cc1onc(-c2c(F)cccc2Cl)c1-c1ncc(-c2ccc(Br)cc2)o1', 9.45),
  ('CC1CCC(C(C)(C)[N+](C)(C)C)CC1 (stereo not drawn)', 10.6);

The following molecules each have a reported value; give each one's growth inhibition.
1. CCCCCC#CC(=O)O
2. CCCCCCCCCCCCCC/C=C\C(CC(=O)O)C(=O)O (stereo not drawn)
3. O=[n+]1ccn([O-])c2ccccc21
4. ON1CCCC1
5. COc1cc2c(c(OC)c1OC)-c1ccc(SC)c(=O)cc1[C@@H](NC1OC(CO)C(O)C(O)C1O)CC2 (stereo partly drawn)
6. C[n+]1c(/C=C\C=C\N2CCCCC2)sc2ccccc21

17.9
-32.6
-52.2
-6.6
6.2
2.45

---

I'd be grateful if you could share measured growth inhibition for these entries.
PROCEDURE_TEXT: NCI Yeast Anticancer Drug Screen. Data for the mlh1 rad18 strain (AID 175)
TEST_CONTEXT: S. cerevisiae mlh1 rad18 strain growth inhibition; at 50.0 µM; hits give high values
This is part of a sample that, as a whole, favours compounds with a hit. Of some 79,000 tested, about 15% had one in any assay. Active and inactive are the calls of the source. Cut-off read from the data, not from the text of the source: active = growth inhibition above about 70%; inactive = the rest.

Solved cases below.
INSERT INTO measurements (compound, endpoint_label, result) VALUES
  ('O=S(=O)(O)c1cccc2cccnc12', 'growth inhibition', '-0.5% (inactive)'),
  ('C=CCC(OC(C)=O)c1ccc(OC)c(OC)c1 (centres undefined)', 'growth inhibition', '9.5% (inactive)'),
  ('Nc1ncnc2c1ncn2C1OC(CO)C2OC21 (centres undefined)', 'growth inhibition', '-30.4% (inactive)'),
  ('Cc1ccc(C)c(CCO)c1', 'growth inhibition', '-7.3% (inactive)'),
  ('C[n+]1cc2cc3c(cc2c2ccccc21)OCO3', 'growth inhibition', '39.5% (inactive)');

Need growth inhibition for each of these compounds.
1. COc1cc(OC)c2cc(C(=O)c3ccc(C#N)cc3)c(=O)oc2c1
2. C1C[S+]2CC[S+]1CC2

1: 32.2% (inactive); 2: 28.2% (inactive)

List reported growth inhibition for each of these compounds:
1. O=C1NCC2CCCC1C2 (centres undefined)
2. NC(=O)N1CCOCC1

1: 1.7% (inactive); 2: 17.9% (inactive)

For the 4 compounds below, give their growth inhibition values.
1. CC1(C)CCC(C)(C)NC(=S)N1
2. CC(=O)Nc1ncc(S(=O)(=O)c2ccc([N+](=O)[O-])cc2)s1
3. Nc1c(O)c(S(=O)(=O)O)c(O)c2c1C(=O)c1ccccc1C2=O
4. CCOC(=O)/C(C)=C\c1ccc(OC)c(OC)c1

11.1% (inactive)
-32.1% (inactive)
33.6% (inactive)
18.9% (inactive)

# return recorded growth inhibition for entry "Cc1ccnc(Nc2nc3ccccc3[nH]2)n1"
8.85% (inactive)

---

PROCEDURE_TEXT: NCI Yeast Anticancer Drug Screen. Data for the rad50 strain (AID 155);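 also: 0% = growth of vehicle-only cultures of the same strain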
TEST_CONTEXT: S. cerevisiae rad50 strain growth inhibition; at 50.0 µM; hits give high values
This is part of a sample that, as a whole, favours compounds with a hit. Of some 79,000 tested, about 15% had one in any assay.
ENDPOINT_LABEL: growth inhibition (%)
Numbers only, in %.

Below, each entry is followed by its recorded growth inhibition result.
INSERT INTO measurements (compound, endpoint_label, numeric_readout) VALUES
  ('OCC1OC(n2ccc3c2ncn2ncnc32)C(O)C1O (centres undefined)', 'growth inhibition', -20.7),
  ('CC1(C)CC(=O)C=C(N)C1', 'growth inhibition', 7.35),
  ('CCN(CC)c1ccc2nc3ccc(N=Nc4ccc(N(C)C)cc4)cc3[n+](-c3ccccc3)c2c1', 'growth inhibition', 42.5),
  ('CN(C)Cc1ccccn1', 'growth inhibition', 1.1),
  ('O=C(O)C1CCCN1C(=O)OCc1ccccc1 (centres undefined)', 'growth inhibition', -23.4);

// for each compound below, give its growth inhibition
1. CCCCCC(=O)OCCC1CCCCC1
2. N#CC1(O)CCCCC1
3. C1=NCCc2ccccc21
4. CC1CCC(C)(C)c2ccccc21 (centres undefined)

1. 25.6
2. 42.6
3. 0.55
4. 2.65

Dear colleague, could you send me growth inhibition for each of the items below? Thanks.
1. NC(=O)c1cc2c3ccccc3ccn2c1-c1ccccc1
2. O=C(O)c1ccccc1Cc1ccc2c(c1)CCCC2
3. O=C(Oc1ccccc1Cl)c1ccc(Cl)cc1Cl
4. CCOC(=O)c1c[nH][nH]c1=O
5. CCOC(C=O)OCC

1. 35.8
2. 17.4
3. 2.2
4. -9.05
5. 0.6
